protocol.notes: yeast display, Sf9 membrane polyspecificity reagent, FACS + sequencing; frameworks hold sequencing errors

sequence.content: QVQLVDSGGGLVQAGGSLRLSCAASGFIFVKYAMGWYRQAPGKERELVAAITTSGTGTFYADSVKGRFTISRDNAKNTVYLQMNSLKPEDTAVYYCNALGHPGDDWGQGTQVTVSS
polyreactivity (PSR sort gate): low polyreactivity
--
sequence.content: QVQLVESGGGLVQAGGSLRLSCAASGSIFVKNAMGWYRQAPGKERELVAVITIRTATTYYADSVKGRFTISRDNAKNTVYLQMNSLKPEDTAVYYCAAAKRQRGYLQREGNYWGQGTQVTVSS
polyreactivity (PSR sort gate): low polyreactivity

----------
protocol.notes: yeast display, Sf9 membrane polyspecificity reagent, FACS + sequencing; frameworks hold sequencing errors

sequence.content: QVQLVESGGGLVQAGGSLRLSCAASGITFRYYTMGWYRQAPGKERELVAVISWSGGSTYYADSVKGRFTISRDNAKNTVYLQMNSLKPEDTAVYYCAAVRRISRYDYWGQGTQVTVSS
polyreactivity (PSR sort gate): high polyreactivity
--
sequence.content: QVQLVESGGGLVQAGGSLRLSCAASGSNFGANAMGWYRQAPGKEREFVAAISGSGTTTYYADSVKGRFTISRDNAKNTVYLQMNSLKPEDTAVYYCAKTRKAHWLGYWGQGTQVTVSS
polyreactivity (PSR sort gate): low polyreactivity
--
sequence.content: QVQLVESGGGLVQAGGSLRLSCAASGSIFTFYAMGWYRPAPGKERELVAAITRSGGSTYYADSVKGRFTISRDNAKNTVYLQMNSLKPEDTAVYYCAKDPSSYVTYRYYYWGQGTEVTVSS
polyreactivity (PSR sort gate): low polyreactivity
--
sequence.content: QVQLVESGGGLVQAGGSLRLSCAASGSIFDYKAMGWYRQAPGKERELFADITISDDSTYYADSVKGRFTISRDNAKNTVYLQMNSLKPEDTAVYYCAADIKYYWYYYYWAYAYDYWGHGTQVTVSS
polyreactivity (PSR sort gate): high polyreactivity
--
sequence.content: QVQLVESGGGLVQAGGSLRLSCAASGRNFGYYTMGWYRQAPGKERELVARINYIGSSTYYADSVKGRFTISRDNAKNTVFLLMNSLKPEDTAVYYCAAETYYFGYGYWGQGTQVTVSS
polyreactivity (PSR sort gate): high polyreactivity
--
sequence.content: QGQHVESGGGLVQAGGSLRLSCAASGFTFAHNAMGWDRQAPGKETDFVAAITSRGGSTYYADSVKGRFTISRDNAKNSVYFQMYSPNPEDTAVYYCAADDYIYTVYSYTYQYWGQGTHVTVSS
polyreactivity (PSR sort gate): low polyreactivity
--
sequence.content: QVQLVESGGGLVQAGGSLRLSCAASGFSFRQYAMGWYRQAPGKERELVAAISRSGSRTYYADSVKGRFTLSRDNAKNTGYLQMNSLKAEDTAVYYCNAVFSTFTGEYYWGQGTQVTVSS
polyreactivity (PSR sort gate): high polyreactivity
--
sequence.content: QVQLVESGGGLVQAGGSLRLSSAASGRIFYPYTIGWYRQAPGKERELVAAISSTGRTNYADSVKGRFTISRDNAKNTVYLQMNSVKPEDTAVYYCAKGFRKYSLGPPGNDYWGQGTQVTVSS
polyreactivity (PSR sort gate): high polyreactivity
--
sequence.content: QVQLVESGGGLVQAGGSLRLSCAASGFTFDYYFMGWYRQAPGKERELVAAISLRSGRTYYADSVKGRFTISRDNAKNTVYLQMKSLKPEDTAVYYCAAESRGVGAYYYWGQGTQVTVSS
polyreactivity (PSR sort gate): high polyreactivity
--
sequence.content: QVQLVESGGGLVQAGGSLRLSCAASGRTFKSYAMGWYRQAPGKERELVAAISKRGGSTYYADSVKGRFTISRDNAKNTVYLQMNSLKPADTAVYYCNKLYLKPGRYYYWGQGTQVTVSS
polyreactivity (PSR sort gate): high polyreactivity
--
sequence.content: QVQLVESGGGLVQAGGSLRLSCAASGFIFYGNAMGWYRPAPGKERELVAAIRWNGGRTYYADSVKGRFTISRDNAKNTVYLQMNSLKAEDTAVYYCAARISQLKYGYWGQGTQVTVSS
polyreactivity (PSR sort gate): high polyreactivity

----------
protocol.notes: yeast display, Sf9 membrane polyspecificity reagent, FACS + sequencing; frameworks hold sequencing errors
readout.label: polyreactivity (PSR sort gate)

sequence.content: QVQLVETGGGLVQAGGSLRLSSAASGIIFKTYAMGWYRQARGKERELLAGIDYSGGGTSYADSVKGRFTISRDNAKNTVYLQMNSLKPEDTAVYYCNAEWWSWGSDSYTYDYPETYDYRGQGTQVTVSS
reading: low polyreactivity
//
sequence.content: QVQLVESGVGLVQAGGSLRLSCAASGRIFYLYAMGWYRQAPGKDSELVAAITWSGGSTTYADSVKVRFTISRDNAKNSVYLQMNSLKPEETAVYYCNADGWIFPSVSPMDYWGQGTQVTVSS
reading: low polyreactivity
//
sequence.content: QVQLVESGGGLVQAGGSLRLRCAASGSILPWYAMGWYRHAPGKERELVAVITSDGGTNYADSVKGRFTISRDNSKNTVYLQMNSLKPEDTAVYYCAADRFSQSGFDSWGQGTQVTVSS
reading: low polyreactivity
//
sequence.content: QVQLVESGGGLVQAGGSLRLSCAASGRIFSSNAMGWYRQAPGKARELVAAISTSGSTKYADSVKGRFTSSRDNAKNTVYLLMNSLKPEDTAVYYCAAKGYEYRYRYDYWGQGTQVTVSW
reading: high polyreactivity
//
sequence.content: QVQLVESGGGLVQAGGSLRLSCAASGRILGRYAMGWYRQAPGKEREVVATITSGDDTNYADSVKGRFTISRDHAKNTVYLQMNSLKPEDTAVGFWGQGSQVTVSS
reading: low polyreactivity
//
sequence.content: QVQLVESGGGLVQAGGSLRLSCAASGSIFDVNAMGWYIQAPGKERELVAAISQRGTRTYYADSVKGRFTISRDNAKNTVYLQMNRLKPEDTAVYYCNRGGWRQYDSWGQGTQVTVSS
reading: high polyreactivity
//
sequence.content: QVQLVESRGGLVLAGGSLRLSCAASGSIFPSYAMGWYRQAPGKERELVASISYRGGSTYYADSVKGRFTISRDNAKNTVYLQMNSLKPEDTAVYYCAATKERYYGWSRLTGYYRGNYWGQGTQVTVSS
reading: high polyreactivity
//
sequence.content: QVQLVESGGGLVQAGGSLRLSCAASGSTFHYYAMGWYRQAPGKERELVAAINSGARTYYADSVKGRFTISRDNAKNTVYLQMNSLKPEDTAVYYCNKAFQWSGGQVSYDFWGQGTQVTVSS
reading: low polyreactivity
//
sequence.content: QVQLVESGGGLVQAGGSLRISCASSVRTFAWNAMGWYRQAPGKERELVAVITSGVSTNYADSVKGRFTISRDNANNTVYLQMNSLKPEDTAVYYCAARSWVYSVIGDNWGLGTQVTVSS
reading: low polyreactivity
//
sequence.content: QVQLVESGGGLVQAGGSLRLSCAASGFIFSWYAMGWYRQAPGKERELVAAISKRGGSTYYADSVKGRFTISRDNAKNTVYLQMNSLKPEDTAVYYCAADRLPSGSLVEYWGQGTQVTVSS
reading: high polyreactivity
//
sequence.content: QVQLVESGGGLVQAGGSLRLRCAASGSIFKTYAMGWYRQAPRKERELVAAITTSGGRTYYADSVKGRFTISRDNAKYTVYLQMNSLKPEDTAVYYCNADLFPGYVSYPEYDYWGQGTQVTVSS
reading: low polyreactivity
//
sequence.content: QVQLVESGGGLVQAGGSLRLSCAASGRIFGGNTMGWYRQAPGKEREFVAAITQSGTRTYYADSVKGRFTISRDNAKNTVYLQMNSLKPEDTAVYYCAAEGYWYPYDYWGQGTQVTVSS
reading: high polyreactivity
//
sequence.content: QVQLVESGGGLVQAGGSLRLSCAASGRTFNYYAMGWYRQAPGKERELVAAISSGGSTDYADSVKGRFTISRDNAKNTVYLQMNSMKPEDTAVYYCNAESYPGWAYFAYDYQFDYWGQGTQVTVSS
reading: low polyreactivity
//
sequence.content: QVQLVESGGGLVQAGGSLRLSCAASGLIFKYYAMGWYRHAPGKERELVAAITWRGGDRTYYADSVKGRFTISRDNAKNTVYLQMNSLKPEDTAVYYCAAVISSPWRFDYWGQGTQVTVSS
reading: high polyreactivity
//
sequence.content: QVQLVESGGGLVQAGGSLRLSCAASGSIFGGNTMGWYRQAPGKERELVAAISRSGGSTYYADSVKGRFTISRDNAKNTVYLQMNSLKPEDTAVYYCNRKQAGHAQGYDYWGQGTQVTVSS
reading: high polyreactivity
//
sequence.content: QVQLVESGGGLVQAGGSLRLSCAASGYTFYGYAMGWYRQAPGKERELVAAISGSGGSTYYADSVKGRFTISRDNAKNTVYLQMNSLKPEDTAFYYCNKARYAIYRGDGYDYWGQGTQVTVSS
reading: high polyreactivity
//
sequence.content: QFQLQESGGGLVQAGGTLRLSCAASGSIFYVYGKGWYRQAPGKERELVAGINAGTNTNYADSVRGRFTISRDNAKNTVHLQMNSQKPVDTAVYYCAADGNGYQAHEYWGQGTQVTVSS
reading: high polyreactivity
//
sequence.content: QVHLVESGGGLVQAGGSLRLRCAASGIIFRRYAMGWYRQAPGKESEFVAAIRYTGGGTYYADSVKGRFTISRDNAKNTVYLQMNSLQPEDTAVYYCAASSRVSKSHLYGYWGQGTQVTVSS
reading: high polyreactivity
//
sequence.content: QVQLVESGGGLVQAGGSLRLSCAASGSTYPYAMGWYRQAPGKERELVAAIRWRGGSTKYADSVKGRFTISRDNAKNTVYLQMNSLKPEDTAVYYCARRWYYVLHGYWGQGTQVTVSS
reading: high polyreactivity
//
sequence.content: QVQLVESGGGLVQAGGSLRLSCASSGSTFTRYAMGWYRQAPGKERELVAAINSSGGRTYYADSVKGRFTISRDNAKNTVYLQMNSLKPEDTAVYYCAATRGRYREDEDYWGQGTQVTVSS
reading: high polyreactivity
//
sequence.content: QVQLEESGGGLVQAGCSLRLSCADSGITFGGNAMGWYRQAPGKERDLVAAIDEGGGSTYYADTVKGRFTLSRDNAKNTVYLQMHSLKPEPTAVDYCAADFGYYGYYYWGQGTQVTVST
reading: low polyreactivity
